Reference for the values: patent US20240197896A1

assayRemarks: Cell viability / cytotoxicity in HeLa transduction assays (flow cytometry FSC/SSC)
Type: cell-based
particulars: human, HeLa cells; shuttle agent at 20 μM; 10 μM GFP-NLS
Ends that are not written are not given here.
parameter: viability at 5 min, 20 µM (%)
Please reply with the bare figure in % and do not write the unit itself.

Return reported viability at 5 min, 20 µM; argument: KWKLARAFARAIKKLGGSGGGSYARALRRQARTG [FSD10] 55

* * *

assayRemarks: Cell viability / cytotoxicity in HeLa transduction assays (flow cytometry FSC/SSC)
Format: cell-based
particulars: human, HeLa cells; shuttle agent; 10 μM GFP-NLS; read-out: cell viabilities
Ends that are not written are not given here.
parameter: viability at 5 min

Return reported viability at 5 min; argument: KWKLARAFARAIKKLGGSGGGSYARALRRQARTG [FSD10] < 10%

* * *

assayRemarks: Cell viability / cytotoxicity in HeLa transduction assays (flow cytometry FSC/SSC)
Format: cell-based
particulars: human, HeLa cells; concentrations of 10 to 220 μM (data not shown); read-out: viabilities
parameter: viability at 5 min

Return reported viability at 5 min; argument: N=C(N)NCCC[C@H](NC(=O)[C@H](CCCNC(=N)N)NC(=O)[C@H](CCCNC(=N)N)NC(=O)[C@H](CCC(N)=O)NC(=O)[C@H](CCCNC(=N)N)NC(=O)[C@H](CCCNC(=N)N)NC(=O)[C@H](CCCCN)NC(=O)[C@H](CCCCN)NC(=O)[C@H](CCCNC(=N)N)NC(=O)CNC(=O)[C@@H](N)Cc1ccc(O)cc1)C(=O)O [TAT] > 80%

* * *

assayRemarks: Cell viability / cytotoxicity in HeLa transduction assays (flow cytometry FSC/SSC)
Assay type: cell-based
particulars: human, HeLa cells; shuttle agent at 40 μM; 10 μM GFP-NLS
Ends that are not written are not given here.
parameter: viability at 5 min, 40 µM

Return reported viability at 5 min, 40 µM; argument: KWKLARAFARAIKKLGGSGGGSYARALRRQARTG [FSD10] 6%
